Value source: PubChem BioAssay AID1996

Settings: buffer; pH 7.4; 200.0 µM
# Lookup of reported solubility kinetic keyed by entry

// solved cases for solubility kinetic follow
[
  {
    "molecule": "CC(=O)N1CCN(C(=S)NC(=O)c2ccc(F)cc2)CC1",
    "readoutValue": "> 46.4 µg/mL"
  },
  {
    "molecule": "O=S(=O)(/N=C(/c1ccccc1)N1CCOCC1)c1ccc(F)cc1F",
    "readoutValue": "> 55 µg/mL"
  },
  {
    "molecule": "COc1ccc(NC(=S)N2CCCC2)cc1OC",
    "readoutValue": "> 40 µg/mL"
  }
]

// query Record request: solubility kinetic value, item "CCc1nc2cccnc2n1-c1ccc(C(=O)O)cc1"
// result > 40.1 µg/mL

// query // same read-out, input: "COc1ccc(C(=O)CCC(=O)Nc2cccnc2)cc1OC"
// result > 47.2 µg/mL

// query Item: "CC(C)NC(=O)C1=NN(c2ccccc2)C(=O)CC1"
// result > 38.9 µg/mL

// query // query: "O=C(CN1C(=O)NC2(CCCCCC2)C1=O)NC1CC1"
// result > 41.9 µg/mL

// query Same question for "Cc1cc(Nc2ccccc2Cl)c2ccccc2n1" please.
// result > 40.3 µg/mL

// query For COC(=O)c1ccc(C2NCCc3cc(OC)c(OC)cc32)cc1 (stereo unspecified) then?
// result > 49.1 µg/mL

* * *

Details: buffer; pH 7.4; 200.0 µM
Quick reference for solubility kinetic among some compounds
// note: answer is a bare numeric in µg/mL

Recorded results for 5 compounds are shown here.
[
  {
    "compound": "COCCCNc1nc(N)c([N+](=O)[O-])c(N2CCCCCC2)n1",
    "units": "µg/mL",
    "solubility kinetic": 47.4
  },
  {
    "compound": "C/C=C/c1ccc(OCc2cc(=O)n3cc(C)ccc3n2)c(OC)c1",
    "units": "µg/mL",
    "solubility kinetic": 9.1
  },
  {
    "compound": "COc1ccc(Cl)cc1NC(=O)CN1CCCCCC1",
    "units": "µg/mL",
    "solubility kinetic": 2.1
  },
  {
    "compound": "O=C(NC(=S)Nc1ccccc1)c1cccs1",
    "units": "µg/mL",
    "solubility kinetic": 1.4
  },
  {
    "compound": "O=C(NCc1ccccn1)Nc1cc(Cl)ccc1Cl",
    "units": "µg/mL",
    "solubility kinetic": 11.9
  }
]

// query So what's the measured solubility kinetic for this one? "O=S(=O)(Nc1cccc2ccccc12)c1ccccc1"
// result 8.6

// query Repeat for the following compound: "O=C(Cc1ccc(Br)cc1)Nc1ncc([N+](=O)[O-])s1"
// result 7.8

// query Query CC(CN1CCN(Cc2ccccc2)CC1)c1ccccc1.O=C(O)C(=O)O (configuration not stated) next
// result 7.2

* * *

Settings: buffer; pH 7.4; 200.0 µM
measuredProperty: log10(solubility kinetic) (log10 of the value in µg/mL)
Short version: log10 scale, solubility kinetic, µg/mL.

Solved entries (count: 10):
[
  {
    "compound": "COc1ccc(S(=O)(=O)NCc2ccccn2)c(C)c1C",
    "log10(solubility kinetic)": 1.52
  },
  {
    "compound": "C/C(N)=C(/C#N)C(=O)COC(=O)c1cc2c(s1)CCC(C)C2 (configuration not stated)",
    "log10(solubility kinetic)": 0.67
  },
  {
    "compound": "COc1cc(Br)c(CN2CCCN(C)CC2)cc1OC",
    "log10(solubility kinetic)": 1.65
  },
  {
    "compound": "O=C(c1ccco1)N1CCN(Cc2nc(Cc3ccccc3)no2)CC1",
    "log10(solubility kinetic)": 1.58
  },
  {
    "compound": "CC1CCCC(C)N1C(=O)COC(=O)c1c[nH]c2ccccc12 (configuration not stated)",
    "log10(solubility kinetic)": 0.91
  },
  {
    "compound": "Cc1ccc2nc(/N=C(\\N)NC(=O)NC3CCCCC3)nc(C)c2c1",
    "log10(solubility kinetic)": 0.90
  },
  {
    "compound": "CCc1ccc(S(=O)(=O)NCC(O)COc2ccc(OC)cc2)cc1 (configuration not stated)",
    "log10(solubility kinetic)": 1.72
  },
  {
    "compound": "O=C(O)c1cccc(Nc2ccc3nonc3c2[N+](=O)[O-])c1",
    "log10(solubility kinetic)": 1.56
  },
  {
    "compound": "COc1cccc(N2CCN(C(=O)/C=C/c3ccco3)CC2)c1",
    "log10(solubility kinetic)": 1.65
  },
  {
    "compound": "CC1=CC(C)C(COC(=O)CN2CCCCC2)C(C)C1 (configuration not stated)",
    "log10(solubility kinetic)": 0.92
  }
]

Now examine the next entry.
// query Please give the measured log10(solubility kinetic) for this compound: "CCOC(=O)c1cnc2ccccc2c1NCc1ccco1"
// result 1.05

* * *

Conditions: buffer; pH 7.4; 200.0 µM
measuredProperty: solubility kinetic

Completed entries (count: 2):
[
  {
    "compound": "O=C(NC1CC1)[C@@H]1CSC2c3ccccc3C(=O)N21 (some centres undefined)",
    "solubility kinetic": "> 41.2 µg/mL"
  },
  {
    "compound": "COc1cc(/C=N/NC(=O)CNC(=O)c2ccncc2)ccc1OC(C)=O",
    "solubility kinetic": "> 55.6 µg/mL"
  }
]

// query Value lookup for solubility kinetic; key = COC(=O)CC1C(=O)NCCN1C(=O)c1sc2ccccc2c1Cl (centres undefined)
// result > 55 µg/mL

// query # repeat for "CC#CC[N+](C)(C)CCCCCCCC.[Br-]"
// result > 43.5 µg/mL

// query What about this compound? "Cc1cc(=O)[nH]c(SCc2ccccc2)n1"
// result > 34.8 µg/mL

// query Next compound: "COc1ccc(S(=O)(=O)Nc2cc(Sc3ncn[nH]3)c(O)cc2C)cc1"
// result > 58.9 µg/mL

// query Query "CCCCN(C)c1c(N2CCC(C(=O)OCC)CC2)c(=O)c1=O" next
// result > 48.4 µg/mL

// query Field entry: "COc1ccc(C(=O)O)cc1S(=O)(=O)N1CCSCC1"
// result > 47.6 µg/mL

// query Please give the result for "CCCn1c(O)c(N=N)c2ccccc21" too.
// result > 30.5 µg/mL

// query Try the compound CCC(C)NC(=O)CN1C(=O)NC2(CCOc3ccccc32)C1=O (centres undefined)
// result > 49.7 µg/mL

// query Now this one: "O=C(NS(=O)(=O)c1ccccc1[N+](=O)[O-])c1ccccc1"
// result > 45.9 µg/mL

* * *

Settings: buffer; pH 7.4; 200.0 µM
measuredProperty: solubility kinetic

Example results:
[
  {
    "compound": "C[C@H](NC(=O)c1ccco1)C(=O)Nc1cc(S(=O)(=O)N2CCCC2)ccc1OCC(F)(F)F",
    "solubility kinetic": "> 73.4 µg/mL"
  },
  {
    "compound": "Cc1ccc(S(=O)(=O)Nc2nc3ccccc3nc2N2CCOCC2)cc1",
    "solubility kinetic": "> 57.7 µg/mL"
  },
  {
    "compound": "O=c1[nH]cc(S(=O)(=O)N2CCOCC2)c(=O)[nH]1",
    "solubility kinetic": "> 39.2 µg/mL"
  },
  {
    "compound": "O=C(c1cc(S(=O)(=O)N2CCOCC2)ccc1F)N1CCc2ccccc21",
    "solubility kinetic": "> 58.6 µg/mL"
  },
  {
    "compound": "CC(C)(C)NC(=O)/C(=C\\c1ccco1)NC(=O)c1ccco1",
    "solubility kinetic": "> 45.3 µg/mL"
  }
]

// query // solubility kinetic lookup, key: "Cc1nc(N2CCOCC2)sc1C=O"
// result > 31.8 µg/mL

// query Consider next the compound "COc1ccc(CNc2c(CO)cnc3c2cnn3C)cc1" in the same way.
// result > 44.8 µg/mL

// query For "O=[N+]([O-])c1cccc(S(=O)(=O)NCCCn2ccnc2)c1" then?
// result > 46.5 µg/mL

// query Also need COc1ccc(C(=O)OC(C)CN2CCOCC2)cc1.Cl (stereo unspecified) , thanks.
// result > 47.4 µg/mL

// query Also check CCOC(=O)C1=C(c2ccccc2)NC(=O)NC1c1cccc(OC)c1OC (stereo unspecified)
// result > 57.4 µg/mL

// query Can you check Cc1ccccc1C(=O)NC(CC(C)C)C(=O)NCC(C)(C)N1CCOCC1 (stereo unspecified) next?
// result > 58.4 µg/mL

* * *

Settings: buffer; pH 7.4; 200.0 µM
measuredProperty: solubility kinetic (µg/mL)
Field format: number, assumed µg/mL, no unit text.

Example compounds with recorded solubility kinetic:
[
  {
    "compound": "O=S(=O)(Nc1ccncc1)c1cc(Cl)ccc1Cl",
    "units": "µg/mL",
    "solubility kinetic": 21.2
  },
  {
    "compound": "Cc1ccccc1NC(=O)CSc1nc2scc(C)c2c(=O)[nH]1",
    "units": "µg/mL",
    "solubility kinetic": 1.4
  }
]

// query Which solubility kinetic value is on record for "CN(C)C(=O)O/N=C(\N)COc1ccc(C(C)(C)C)cc1" ?
// result 36

// query Continue with CCOc1ccc(S(=O)(=O)NC(Cc2cnc[nH]2)C(=O)O)cc1 (centres undefined)
// result 25.8

// query // next record "CCC(=O)N(Cc1cc(=O)[nH]c2ccccc12)c1ccc(OC)cc1"
// result 47.1

// query Cool, now "O=C(CC1CCC1)Nc1cccc2c([N+](=O)[O-])cccc12"
// result 5.8

// query Consider next the compound "N#Cc1cc2c(=O)n3ccccc3nc2n(-c2ccc(Cl)cc2)c1=O" in the same way.
// result 1.4

// query Subsequent entry: "CCOc1ccc(NC2=CC(=O)CCC2)cc1"
// result 29.5
